src = PubChem BioAssay (NCI)

Tested on: A549/ATCC NSCLC
ASSAY_PROTOCOL: NCI-60 one-dose screen, 48 h
TEST_CONDITIONS: 10 µM unless noted
About 83,000 compounds went through this panel and 20% of them were active in at least one assay; those are over-represented in the sample as a whole. Activity calls are given as the source filed them. How the source made its calls: active means growth percent below 10; inactive means the rest.
Assign a class; possible classes are yes (1) (active), no (0) (inactive)

Please review the entries below; each comes with its answer.
COMPOUND | CLASS_ASSIGNMENT
Cc1ccc(-c2nn(Cc3cn(-c4cc(C)nc5ccccc45)nn3)c3ncnc(N)c23)cc1 | no (0)
C=C(C)[C@@H]1CC[C@]2(C(=O)NNC(=O)c3cccnc3)CC[C@]3(C)[C@H](CC[C@@H]4[C@@]5(C)CCCNC(C)(C)[C@@H]5CC[C@]43C)[C@@H]12 | no (0)
CC1(C)C(=O)/C(=C\c2cccnc2)C[C@]2(C)[C@H]3CC[C@@H]4[C@@H](C(=O)/C=C/c5ccncc5)CC[C@@]4(C)[C@]3(C)CC[C@@H]12 | yes (1)
N#C/C(=C\c1ccc(-c2ccc(Br)cc2)o1)c1nc(-c2cccs2)cs1 | no (0)
CC(=O)O[C@@H]1CCN2C(=O)N(C)c3ccccc3[C@@H]2C1 | no (0)
Cc1ccc(/C=C(\C#N)c2cc3ccccc3n2C)cc1 | no (0)
Cc1ccsc1-c1ccc2c(c1)COC2(CCCN(C)C)c1ccc(F)cc1 (centres undefined) | no (0)
CN1CCN(c2nc(-c3csc(-c4cccs4)n3)cc3ccccc23)CC1 | no (0)

What did the test return for O=C1C=Cc2ncccc2C1=O ? no (0)
